# Experimental System: Acetylcholinesterase (Bos taurus, UniProt P23795)
# Sequence (P23795 whole entry): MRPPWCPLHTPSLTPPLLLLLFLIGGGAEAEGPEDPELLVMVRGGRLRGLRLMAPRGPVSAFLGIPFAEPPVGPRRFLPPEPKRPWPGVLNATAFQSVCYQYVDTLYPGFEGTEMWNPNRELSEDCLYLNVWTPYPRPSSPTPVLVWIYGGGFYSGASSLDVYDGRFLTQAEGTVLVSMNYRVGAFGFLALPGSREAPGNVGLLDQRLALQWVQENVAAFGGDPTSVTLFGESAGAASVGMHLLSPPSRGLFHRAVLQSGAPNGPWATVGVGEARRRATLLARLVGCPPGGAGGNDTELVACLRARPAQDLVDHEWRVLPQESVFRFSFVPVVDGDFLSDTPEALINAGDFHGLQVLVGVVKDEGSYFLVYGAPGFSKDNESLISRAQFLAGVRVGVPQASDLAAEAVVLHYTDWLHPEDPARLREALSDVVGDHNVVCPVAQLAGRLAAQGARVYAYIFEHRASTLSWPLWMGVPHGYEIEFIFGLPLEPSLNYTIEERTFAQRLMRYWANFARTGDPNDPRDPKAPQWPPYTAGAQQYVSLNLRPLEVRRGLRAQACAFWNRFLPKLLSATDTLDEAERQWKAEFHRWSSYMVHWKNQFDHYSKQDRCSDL
Form field: IC50 (one value per entry).
Give the number; µM is assumed, so skip it.

CN(C)c1ccc(CC(=O)NCCCCCCCCCCCCNC23CC4CC(CC(C4)C2)C3)cc1; 20

Consider the record given below.
Please look up its IC50: CN(C)c1ccc(CC(=O)NCCCCCCCCCCNC23CC4CC(CC(C4)C2)C3)cc1
77

###

# Experimental System: Acetylcholinesterase (Torpedo californica) (UniProt P04058)
# Sequence (P04058 22-564 limits assumed): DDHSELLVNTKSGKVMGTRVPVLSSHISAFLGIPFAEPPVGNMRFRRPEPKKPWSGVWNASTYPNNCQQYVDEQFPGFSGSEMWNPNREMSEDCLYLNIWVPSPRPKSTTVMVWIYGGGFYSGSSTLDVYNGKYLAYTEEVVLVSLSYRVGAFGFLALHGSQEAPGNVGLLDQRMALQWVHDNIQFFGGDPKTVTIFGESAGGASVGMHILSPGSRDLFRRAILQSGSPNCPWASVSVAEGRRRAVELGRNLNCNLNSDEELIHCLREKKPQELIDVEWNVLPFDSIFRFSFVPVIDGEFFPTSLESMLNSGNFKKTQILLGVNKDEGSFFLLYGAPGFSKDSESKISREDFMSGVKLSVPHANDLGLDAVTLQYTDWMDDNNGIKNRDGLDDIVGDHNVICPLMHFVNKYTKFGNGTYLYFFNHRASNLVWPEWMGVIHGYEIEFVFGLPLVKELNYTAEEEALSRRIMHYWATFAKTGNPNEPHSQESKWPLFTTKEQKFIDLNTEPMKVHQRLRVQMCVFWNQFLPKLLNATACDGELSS
# Protocol Summary: Compound was evaluated for non-competitive inhibition constant of acetylcholinesterase (AChE) from Torpedo californica
# Recorded Conditions: Tetronarce californica
Form field: KI' (one value per entry).
Give the number; µM is assumed, so skip it.

Example cases with answers are listed next.
CN(C)c1ccc(CC(=O)NCCCCCCCCNC23CC4CC(CC(C4)C2)C3)cc1; 10
CN(C)c1ccc(CC(=O)NCCCCCCCCCCCNC23CC4CC(CC(C4)C2)C3)cc1; 5.2
CN(C)c1ccc(CC(=O)NCCCCCCCCCCCCNC23CC4CC(CC(C4)C2)C3)cc1; 4.1

API: value(readout=KI', system=Acetylcholinesterase (Torpedo californica) (UniProt P04058)) for record CN(C)c1ccc(CC(=O)NCCCCCCCCCCNC23CC4CC(CC(C4)C2)C3)cc1
5.3

API: value(readout=KI', system=Acetylcholinesterase (Torpedo californica) (UniProt P04058)) for record CN(C)c1ccc(CC(=O)NCCCCCCCNC23CC4CC(CC(C4)C2)C3)cc1
13

API: value(readout=KI', system=Acetylcholinesterase (Torpedo californica) (UniProt P04058)) for record CN(C)c1ccc(CC(=O)NCCCCCCCCCNC23CC4CC(CC(C4)C2)C3)cc1
7
